# Adenosine A2A Receptor (Homo sapiens): IC50 values follow
# Sequence (P29274 whole entry): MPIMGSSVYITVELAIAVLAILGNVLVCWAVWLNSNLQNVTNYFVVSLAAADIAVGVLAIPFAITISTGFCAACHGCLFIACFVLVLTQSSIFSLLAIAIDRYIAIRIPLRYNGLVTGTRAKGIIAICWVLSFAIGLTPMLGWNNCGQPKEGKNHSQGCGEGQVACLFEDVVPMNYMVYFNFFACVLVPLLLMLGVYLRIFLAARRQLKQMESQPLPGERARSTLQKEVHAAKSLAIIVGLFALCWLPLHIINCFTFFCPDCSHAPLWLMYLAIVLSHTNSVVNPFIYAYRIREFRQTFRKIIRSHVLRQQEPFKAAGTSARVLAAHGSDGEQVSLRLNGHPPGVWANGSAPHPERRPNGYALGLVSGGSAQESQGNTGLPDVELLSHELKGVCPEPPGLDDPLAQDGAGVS

[[record]]
molecule = "Cc1nc2nc(N[C@@H](C)c3cncc(F)c3)nc(C(=O)N3CC(NC(=O)NC4CCCC4)C3)c2s1"
quantity_name = "IC50"
reported = "< 0.1 µM"

[[record]]
molecule = "CC(=O)Nc1ccc(CCNC(=O)c2nc(N[C@@H](C)c3cncc(F)c3)nc3nc(C)sc23)cc1"
quantity_name = "IC50"
reported = "> 1 µM"

[[record]]
molecule = "CC(=O)NC[C@@H]1CCN(C(=O)c2nc(N[C@@H](C)c3cncc(F)c3)nc3nc(C)sc23)C1"
quantity_name = "IC50"
reported = "> 1 µM"


IN: Given the entry `COc1cccc(C(=O)NC2CN(C(=O)c3nc(N[C@@H](C)c4cncc(F)c4)nc4nc(C)sc34)C2)c1` , what IC50 was observed with Adenosine A2A Receptor (Homo sapiens)?
OUT: < 0.1 µM

IN: Given the entry `Cc1nc2nc(N[C@@H](C)c3cncc(F)c3)nc(C(=O)N3CCCC3)c2s1` , what IC50 was observed with Adenosine A2A Receptor (Homo sapiens)?
OUT: 0.1 to 1 µM

IN: Given the entry `Cc1nc2nc(N[C@@H](C)c3cncc(F)c3)nc(C(=O)N3CC[C@@H](CO)C3)c2s1` , what IC50 was observed with Adenosine A2A Receptor (Homo sapiens)?
OUT: > 1 µM

IN: Given the entry `Cc1nc2nc(N[C@@H](C)c3cncc(F)c3)nc(C(=O)NC[C@@H]3CCOC3)c2s1` , what IC50 was observed with Adenosine A2A Receptor (Homo sapiens)?
OUT: 0.1 to 1 µM

Data credit: patent US20200079793A1
